Counter-ions that a name gives are not always drawn.
I'd be grateful if you could share measured melting point for these entries.

Item: CN1C(=O)c2cc(-c3ccccc3)cn2-c2cc(-c3cccnc3F)ccc2C12CC2 [Example 113] | melting point: 143 to 149 °C

Item: CN1C(=O)c2cccn2-c2cc(-c3cccnc3C(C)(C)O)ccc2C12CC2 [Example 72] | melting point: 220 to 228 °C

Item: Cc1ncccc1-c1ccc2c(c1)-n1cc(C#N)cc1C(=O)N(C)C21CC1 [Example 153] | melting point: > 250 °C

Item: CN1C(=O)c2cccn2-c2cc(-c3ccc(C(F)(F)F)cn3)ccc2C12CC2 [Example 69] | melting point: 78 to 89 °C

Item: CN(C)c1ccc2c(c1)-n1cc(-c3ccccc3)cc1C(=O)N(C)C21CC1 (as salt: hydrochloride) [Example 115] | melting point: 160 to 170 °C

Item: Cc1ncccc1-c1ccc2c(c1)-n1c(F)ccc1C(=O)N(C)C21CC1 (as salt: hydrochloride) [Example 81] | melting point: 150 to 158 °C

Item: Cc1ncccc1-c1ccc2c(c1)-n1cc(C(=O)O)cc1C(=O)N(C)C21CC1 [Example 176] | melting point: > 250 °C

Item: Cc1ncccc1-c1ccc2c(c1)-n1cc(-c3cccnc3)cc1C(=O)N(C)C21CC1 (as salt: hydrochloride) [Example 143] | melting point: > 250 °C
